target: HLA-A*02:01 (Homo sapiens, UniProt P04439, D140Y/D185E/D98H/E176V/E277Q/G131W/G231S/I119V/I121R/I166T/I218V/L300P/L318F/N151K/N90K/P208A/P217A/Q86G/Q94H/R138H/R169H/T345S); assay: MHC binding assay (UV-ligand exchange, beta2m ELISA); conditions: binding to HLA-A*02:01 ranged by peptide exchange yield (UV-ligand exchange, β2m ELISA)
OUTCOME_MEASURE: Peptide exchange

## Input So what does the record say about Peptide exchange for 189 (ALQRKLPYV; listed as Homo sapiens) [compound 189] ?
## Output “+++” (≥50 = +++)

## Input Query (substance): 106 (LLYDAVHIVSV; listed as Homo sapiens) [compound 106] ; field requested: Peptide exchange
## Output “+++” (≥50 = +++)

## Input I'd like to know its Peptide exchange. The substance in question is 591 (SMAELDIKL; listed as Homo sapiens) [compound 591]
## Output “+++” (≥50 = +++)

## Input What value of measured Peptide exchange is listed for 44 (ILDPISSGFLL; listed as Homo sapiens) [compound 44] ?
## Output “++” (≥20% = ++)

## Input Item under review: 285 (QLLHVGVTV; listed as Homo sapiens) [compound 285] . Reported Peptide exchange?
## Output “+++” (≥50 = +++)

More entries:
## Input Quick one: Peptide exchange of 505 (SLAPGDVVRQV; listed as Homo sapiens) [compound 505] ?
## Output “++” (≥20% = ++)

## Input Which Peptide exchange value belongs to 200 (LLFGSVQEV; listed as Homo sapiens) [compound 200] ?
## Output “+++” (≥50 = +++)

====

target: HLA-A*02:01 (Homo sapiens, UniProt P04439, D140Y/D185E/D98H/E176V/E277Q/G131W/G231S/I119V/I121R/I166T/I218V/L300P/L318F/N151K/N90K/P208A/P217A/Q86G/Q94H/R138H/R169H/T345S); test: MHC binding assay (UV-ligand exchange, beta2m ELISA); details: binding to HLA-A*02:01 ranged by peptide exchange yield (UV-ligand exchange, β2m ELISA)
OUTCOME_MEASURE: Peptide exchange

## Input Peptide exchange for 407 (YLMDLINFL; listed as Homo sapiens) [compound 407] ?
## Output “+++” (≥50 = +++)

## Input Given 275 (YLVYILNEL; listed as Homo sapiens) [compound 275] , state its recorded Peptide exchange.
## Output “++” (≥20% = ++)

## Input I'd like to know its Peptide exchange. The substance in question is 550 (FLYDEIEAEVNL; listed as Homo sapiens) [compound 550]
## Output “+++” (≥50 = +++)

## Input Which Peptide exchange is listed for 13 (YLMDESLNL; listed as Homo sapiens) [compound 13] ?
## Output “+++” (≥50 = +++)

## Input Recorded Peptide exchange for 572 (ALADLIEKELSV; listed as Homo sapiens) [compound 572] , please?
## Output “+++” (≥50 = +++)

## Input Entry under review: 375 (SLTETIEGV; listed as Homo sapiens) [compound 375] . Reported Peptide exchange?
## Output “++” (≥20% = ++)

Attention now shifts to the item below.
## Input Reported Peptide exchange, substance 161 (ALLEGVNTV; listed as Homo sapiens) [compound 161] : ____
## Output “+++” (≥50 = +++)
